Tested on: UACC-257
Assay: NCI tumour cell line growth inhibition, 48 h
Activity calls are given as the source filed them. Cut-off read from the data, not from the text of the source: active = GI50 up to about 1.1 µM and inactive = higher.
QUANTITY: GI50

N=C(N)NC(=N)Nc1ccc(S(=O)(=O)O)cc1	> 100 µM (inactive)
COc1cc(C(=O)OCCn2[nH]c(-c3ccc(Cl)cc3)nc2=S)cc(OC)c1OC	44.1 µM (inactive)
CCc1cccc(C(C)C)c1NC(=O)/C(=N\NC(N)=O)C(C(=O)OC)c1cnc2ccccc2n1 (stereo not given)	32.1 µM (inactive)
COc1ccc(Nc2nc(N)c(C(=O)c3ccccc3)s2)cc1	29.5 µM (inactive)
CCOC(=O)CCc1c(C)c2c(O)cc(O)cc2oc1=O	> 100 µM (inactive)
CCOC(=O)CCC(NC(=O)c1ccc(Oc2nc3c(N)cc(C(F)(F)F)cc3nc2-c2ccccc2)cc1)C(=O)OCC (stereo not given)	> 27.9 µM (inactive)
COc1ccc(C2SC(=N)Nc3c2c(C)nn3C(=O)c2ccccc2O)cc1OC (stereo not given)	> 10 µM (inactive)
[O-][n+]1onc2c1-c1nonc1CC2	18.5 µM (inactive)
C/C(=C\CC[C@]1(C)OC(C)(C)OC1CC/C(C)=C/CO[Si](c1ccccc1)(c1ccccc1)C(C)(C)C)CC/C=C/CO[Si](C)(C)C(C)(C)C (stereo not given in full)	> 100 µM (inactive)
COc1ccc(-c2cc(C(=O)Nc3cc(C(F)(F)F)cc(C(F)(F)F)c3)c3ccccc3n2)cc1	17.6 µM (inactive)

====

GI50 for assorted molecules
Test system: SF-539
Assay: NCI tumour cell line growth inhibition, 48 h
Activity calls are given as the source filed them. No stated cut-off is given here; in the data, active = GI50 up to about 1.1 µM and inactive = higher.
QUANTITY: GI50

CC(=O)OCCc1cccnc1/C=N/O	> 100 µM (inactive)
CC1=C(SCCO)C(=O)c2ccccc2C1=O	12.1 µM (inactive)
COc1ccc(CN=C(N)N)c2ccccc12	19.2 µM (inactive)
Cc1cc(Cl)ccc1C1OC(=O)c2c1ccc1ccccc21 (configuration not stated)	> 100 µM (inactive)
Nc1nnnn1NC(=O)NCCCl	> 10 µM (inactive)
Nc1nc(S)nc(C(=O)Nc2nccs2)c1-c1ccccc1	> 100 µM (inactive)
CCOC1CN(C)/C(=N\c2cccc3ccccc23)S1 (configuration not stated)	> 10 µM (inactive)
C1CSCCSCCS1	> 100 µM (inactive)
Cc1nn2c(C(=O)N/N=C/c3ccccc3O)c(C)nc2s1	> 100 µM (inactive)
Cn1nc2ccc(Nc3cc(=O)[nH]c4ccc5nn(C)nc5c34)cc2n1	> 100 µM (inactive)
O=C1[C@H]2ON(c3ccccc3)C(c3ccco3)[C@H]2C(=O)N1c1ccc(Cc2ccc(N3C(=O)[C@@H]4ON(c5ccccc5)C(c5ccco5)[C@@H]4C3=O)cc2)cc1 (some centres not stated)	> 100 µM (inactive)
O=C1C(NS(=O)(=O)c2ccccc2)=C(N(Cc2ccccc2)Cc2ccccc2)C(=O)c2ccccc21	67.5 µM (inactive)

====

System: SW-620
Test: NCI tumour cell line growth inhibition, 48 h
The source made the active and inactive calls. No stated cut-off is given here; in the data, active = GI50 up to about 1.1 µM and inactive = higher.
GI50 for assorted compounds
QUANTITY: GI50

Nc1nc(Cl)c(CO)c(NCC2(CO)CC(CCc3ccccc3)C2)n1 (stereo not given)	19.6 µM (inactive)
O=C(CC(=O)Nc1ccccc1O)Nc1ccccc1O	4.6 µM (inactive)
Nc1n[nH]c2c1Cc1c(n(Cc3ccc(Cl)cc3)c3ccccc13)C(=O)N2	8.47 µM (inactive)
COc1cc(OC)cc(Oc2nc3cc(F)c(F)cc3nc2-c2ccccc2)c1	> 100 µM (inactive)
Cc1[nH]c2ccccc2c1-c1cc(-c2cc(-c3c(C)[nH]c4ccccc34)nc(N)n2)nc(N)n1	> 100 µM (inactive)
CN(C)c1ccc(/C=C2\C[C@H]3[C@@H]4CC=C5C[C@@H](O)CC[C@]5(C)[C@H]4CC[C@]3(C)[C@H]2O)cc1	24.8 µM (inactive)
O=S(=O)(O)c1cc(/N=N/c2c(O)ccc3ccccc23)c2c(S(=O)(=O)O)cccc2c1	> 100 µM (inactive)
COc1ccc(CN=C(N)N)c2ccccc12	41.2 µM (inactive)
CC(=O)/N=C1\N/C(=C/c2cc([N+](=O)[O-])ccc2O)CN1C	> 100 µM (inactive)
Nc1c(-c2cn(Cc3ccccc3)c3ccccc23)[n+]([O-])c2ccccc2[n+]1[O-]	51.4 µM (inactive)
N#C/C(=C\c1ccc(Cl)cc1)c1nc2ccccc2c(=O)[nH]1	> 100 µM (inactive)
c1cnc2c3[nH]cc4[nH]c5ccccc5c4c-3nc2c1	55.2 µM (inactive)
C=CCn1c2ccccc2[n+]2cc([N+](=O)[O-])ccc12	30.8 µM (inactive)
COC(=O)[C@H]1ON2O[C@H](OC3CCCC[C@@H]3c3ccccc3)C[C@@H]3CC[C@H]1[C@@]32C (stereo not given in full)	> 100 µM (inactive)
COc1ccc(C(=O)c2ccc(-n3c4ccccc4c4ccc5c(c43)C(=O)C=CC5=O)cc2)cc1	1 µM (active)
CC1=C(SCCO)C(=O)c2ccccc2C1=O	12.2 µM (inactive)
N#Cc1c(Cl)cc(Cl)n2c1nc1ccccc12	3.15 µM (inactive)
O=C(/C=C/c1ccc(Oc2cc(C(=O)/C=C/c3ccc(O)cc3)c(O)cc2O)cc1)c1ccc(O)cc1O	4.82 µM (inactive)
C[N+](C)(C)CC1CCCc2ccccc2C1=O (stereo not given)	2.04 µM (inactive)
O=C(CSc1nc2ccccc2c(=O)n1-c1ccccc1)N/N=C1\C(=O)Nc2ccc(Br)cc21	3.37 µM (inactive)

Where these numbers come from: ChEMBL document CHEMBL1201862
